The reported measurements were obtained from ChEMBL document CHEMBL3351926.

# assay-text: Therapeutic index, ratio of CC50 for human A3.01 cells to IC50 for HIV1 infected in human A3.01 cells
# Type: cell-based
# test-parameters: A3.01 cells (uninfected for CC50; HIV1-infected for IC50)
property-label: selectivity ratio
The reply should be a number, written without any unit.

Past entries and their recorded results:
molecular-string	selectivity ratio
O=C1c2c(O)ccc3c2[C@H](c2ccc(O)c4c2[C@H]3[C@H]2O[C@H]2C4=O)[C@H]2O[C@@H]12	15
O=C1C[C@H](O)[C@@H]2c3c(ccc(O)c31)-c1ccc(O)c3c1[C@@]2(O)CCC3=O	3
O=C1CC[C@]2(O)c3c(ccc(O)c31)-c1ccc(O)c3c1[C@H]2[C@H]1O[C@H]1C3=O	6.5

Please examine the following record next.
Prompt line: Suppose we examine the molecule O=C1C[C@@H](O)[C@H]2c3c(ccc(O)c31)-c1ccc(O)c3c1[C@H]2[C@H]1O[C@H]1C3=O ; what selectivity ratio value has been reported?
Response line: 50
